System: TK (B-Cell Non-Hodgkin's Lymphoma)
experiment notes: Bliss excess, mean over the matrix (fraction); higher = more synergy
Kindly supply the reported Bliss excess values for the records listed here.

Check out these entries, answers already filled in.
C=CCn1c(=O)c2cnc(Nc3ccc(N4CCN(C)CC4)cc3)nc2n1-c1cccc(C(C)(C)O)n1 [AZD1775] + C1CN(CCC1(C(=O)N[C@@H](CCO)C2=CC=C(C=C2)Cl)N)C3=NC=NC4=C3C=CN4 [Capivasertib] (first compound max 3 µM, partner max 3 µM)    0.0183
COc1cccc(OCCCN)c1-c1cc(Nc2cnc(C#N)cn2)n[nH]1 [Prexasertib] + CCc1c2c(nc3ccc(O)cc13)-c1cc3c(c(=O)n1C2)COC(=O)[C@]3(O)CC [SN-38] (first compound max 1 µM, 7x7, partner max 0.3 µM)    0.0138

From here, focus on the item given below.
[ask] What value of Bliss excess has been recorded for this entry: Cc1cc2ncnn2cc1Nc1ncc2c(n1)n(C1CCOCC1)c(=O)n2C [AZD7648] + O=C(c1cc(Cc2n[nH]c(=O)c3ccccc23)ccc1F)N1CCN(C(=O)C2CC2)CC1 [Olaparib] (first compound max 10 µM, 7x7, partner max 10 µM)
[reply] 0.0001

---

Test system: NCI-H2452 (Mesothelioma)
experiment notes: Bliss excess, mean over the matrix (fraction); higher = more synergy
property name: Bliss excess
One number for each entry.

Check out these entries, answers already filled in.
CC(=O)c1c(C)c2cnc(Nc3ccc(N4CCNCC4)cn3)nc2n(C2CCCC2)c1=O [Palbociclib] + CC1(C)CCC(CN2CCN(c3ccc(C(=O)NS(=O)(=O)c4ccc(NCC5CCOCC5)c([N+](=O)[O-])c4)c(Oc4cnc5[nH]ccc5c4)c3)CC2)=C(c2ccc(Cl)cc2)C1 [Venetoclax] (first compound max 10 µM, 7x7, partner max 1 µM)    -0.0188
C[C@@H](c1ccc2nccn2c1)n1nnc2ncc(-c3cnn(C)c3)nc21 [Savolitinib] + CC1(C)CCC(CN2CCN(c3ccc(C(=O)NS(=O)(=O)c4ccc(NCC5CCOCC5)c([N+](=O)[O-])c4)c(Oc4cnc5[nH]ccc5c4)c3)CC2)=C(c2ccc(Cl)cc2)C1 [Venetoclax] (first compound max 1 µM, 7x7, partner max 1 µM)    -0.0714
COc1cccc(OCCCN)c1-c1cc(Nc2cnc(C#N)cn2)n[nH]1 [Prexasertib] + C[C@@H]1COCCN1C2=NC(=NC(=C2)C3(CC3)[S@](=N)(=O)C)C4=C5C=CNC5=NC=C4 [AZD6738] (first compound max 1 µM, 7x7, partner max 10 µM)    -0.0061
Cc1cc2ncnn2cc1Nc1ncc2c(n1)n(C1CCOCC1)c(=O)n2C [AZD7648] + CN(C)CCCOc1ccc(-c2ccc3ncc4c(c3c2)n(C2CCOCC2)c(=O)n4C)cn1 [AZD0156] (first compound max 10 µM, 7x7, partner max 1 µM)    -0.0457

From here, focus on the item given below.
[ask] What value of Bliss excess has been recorded for this entry: N#Cc1cnc(Nc2cc(NC[C@H]3CNCCO3)c(C(F)(F)F)cn2)cn1 [SRA737] + CCc1c2c(nc3ccc(O)cc13)-c1cc3c(c(=O)n1C2)COC(=O)[C@]3(O)CC [SN-38] (first compound max 10 µM, 7x7, partner max 0.3 µM)
[reply] 0.0683

---

Test system: KNS-62 (Squamous Cell Lung Carcinoma)
experiment notes: combination Emax (second highest fraction inhibited in the dose matrix, 72 h); higher = more inhibition; extreme values may be limits of the assay
Kindly supply the reported combination Emax values for the records listed here.
Numbers only.

Check out these entries, answers already filled in.
N#Cc1cnc(Nc2cc(NC[C@H]3CNCCO3)c(C(F)(F)F)cn2)cn1 [SRA737] + Nc1ccn([C@@H]2O[C@H](CO)[C@@H](O)C2(F)F)c(=O)n1 [Gemcitabine] (first compound max 10 µM, 7x7, partner max 0.3 µM)    0.608
C=CCn1c(=O)c2cnc(Nc3ccc(N4CCN(C)CC4)cc3)nc2n1-c1cccc(C(C)(C)O)n1 [AZD1775] + C[C@@H]1COCCN1C2=NC(=NC(=C2)C3(CC3)[S@](=N)(=O)C)C4=C5C=CNC5=NC=C4 [AZD6738] (first compound max 1 µM, partner max 10 µM)    0.565
Cn1cnc2c(F)c(Nc3ccc(Br)cc3Cl)c(C(=O)NOCCO)cc21 [Selumetinib] + C=CCn1c(=O)c2cnc(Nc3ccc(N4CCN(C)CC4)cc3)nc2n1-c1cccc(C(C)(C)O)n1 [AZD1775] (first compound max 10 µM, partner max 1 µM)    0.434

From here, focus on the item given below.
[ask] What value of combination Emax has been recorded for this entry: C=CCn1c(=O)c2cnc(Nc3ccc(N4CCN(C)CC4)cc3)nc2n1-c1cccc(C(C)(C)O)n1 [AZD1775] + C1CN(CCC1(C(=O)N[C@@H](CCO)C2=CC=C(C=C2)Cl)N)C3=NC=NC4=C3C=CN4 [Capivasertib] (first compound max 3 µM, partner max 3 µM)
[reply] 0.719

---

System: IGROV-1 (Ovarian Carcinoma)
experiment notes: combination Emax (second highest fraction inhibited in the dose matrix, 72 h); higher = more inhibition; extreme values may be limits of the assay
property name: combination Emax
Numbers only.

Check out these entries, answers already filled in.
COc1cccc(OCCCN)c1-c1cc(Nc2cnc(C#N)cn2)n[nH]1 [Prexasertib] + CN(C)CCCOc1ccc(-c2ccc3ncc4c(c3c2)n(C2CCOCC2)c(=O)n4C)cn1 [AZD0156] (first compound max 1 µM, 7x7, partner max 1 µM)    0.788
NC1(C(=O)N[C@@H](CCO)c2ccc(Cl)cc2)CCN(c2ncnc3[nH]ccc23)CC1 [Capivasertib] + COc1nnc2ccc(N3CCC(c4ccc(OCCN5CCN(C)C(=O)[C@H]5C)cc4)CC3)nn12 [AZD5153] (first compound max 10 µM, 7x7, partner max 1 µM)    0.804

[ask] What value of combination Emax has been recorded for this entry: CC1(C)CCC(CN2CCN(c3ccc(C(=O)NS(=O)(=O)c4ccc(NCC5CCOCC5)c([N+](=O)[O-])c4)c(Oc4cnc5[nH]ccc5c4)c3)CC2)=C(c2ccc(Cl)cc2)C1 [Venetoclax] + COc1cc(Nc2ncc3c(n2)-c2ccc(Cl)cc2C(c2c(F)cccc2OC)=NC3)ccc1C(=O)O [Alisertib] (first compound max 1 µM, 7x7, partner max 10 µM)
[reply] 0.789

---

Tested on: MG-63 (Osteosarcoma)
experiment notes: combination Emax (second highest fraction inhibited in the dose matrix, 72 h); higher = more inhibition; extreme values may be limits of the assay
Kindly supply the reported combination Emax values for the records listed here.
Numbers only.

Check out these entries, answers already filled in.
N#Cc1cnc(Nc2cc(NC[C@H]3CNCCO3)c(C(F)(F)F)cn2)cn1 [SRA737] + O=c1[nH]cc(F)c(=O)[nH]1 [5-Fluorouracil] (first compound max 10 µM, 7x7, partner max 20 µM)    0.492
C=CCn1c(=O)c2cnc(Nc3ccc(N4CCN(C)CC4)cc3)nc2n1-c1cccc(C(C)(C)O)n1 [AZD1775] + CCc1c2c(nc3ccc(O)cc13)-c1cc3c(c(=O)n1C2)COC(=O)[C@]3(O)CC [SN-38] (first compound max 1 µM, partner max 0.3 µM)    0.968
O=C(c1cc(Cc2n[nH]c(=O)c3ccccc23)ccc1F)N1CCN(C(=O)C2CC2)CC1 [Olaparib] + CC1(C)CCC(CN2CCN(c3ccc(C(=O)NS(=O)(=O)c4ccc(NCC5CCOCC5)c([N+](=O)[O-])c4)c(Oc4cnc5[nH]ccc5c4)c3)CC2)=C(c2ccc(Cl)cc2)C1 [Venetoclax] (first compound max 10 µM, 7x7, partner max 1 µM)    0.299
CC1(C)CCC(CN2CCN(c3ccc(C(=O)NS(=O)(=O)c4ccc(NCC5CCOCC5)c([N+](=O)[O-])c4)c(Oc4cnc5[nH]ccc5c4)c3)CC2)=C(c2ccc(Cl)cc2)C1 [Venetoclax] + C[C@@H]1COCCN1C2=NC(=NC(=C2)C3(CC3)[S@](=N)(=O)C)C4=C5C=CNC5=NC=C4 [AZD6738] (first compound max 1 µM, 7x7, partner max 10 µM)    0.494
CC1(C)CCC(CN2CCN(c3ccc(C(=O)NS(=O)(=O)c4ccc(NCC5CCOCC5)c([N+](=O)[O-])c4)c(Oc4cnc5[nH]ccc5c4)c3)CC2)=C(c2ccc(Cl)cc2)C1 [Venetoclax] + C1CN(CCC1(C(=O)N[C@@H](CCO)C2=CC=C(C=C2)Cl)N)C3=NC=NC4=C3C=CN4 [Capivasertib] (first compound max 1 µM, 7x7, partner max 3 µM)    0.317

Give measured combination Emax for every item shown.
1. COc1cccc(OCCCN)c1-c1cc(Nc2cnc(C#N)cn2)n[nH]1 [Prexasertib] + CN(C)CCCOc1ccc(-c2ccc3ncc4c(c3c2)n(C2CCOCC2)c(=O)n4C)cn1 [AZD0156] (first compound max 1 µM, 7x7, partner max 1 µM)
2. CN(CCO)CC[C@H](CSc1ccccc1)Nc1ccc(S(=O)(=O)NC(=O)c2ccc(N3CCC([C@@H](O)c4ccccc4-c4ccc(Cl)cc4)CC3)cc2)cc1S(=O)(=O)C(F)(F)F [AZD4320] + CS(=O)(=O)CCNCc1ccc(-c2ccc3ncnc(Nc4ccc(OCc5cccc(F)c5)c(Cl)c4)c3c2)o1 [Lapatinib] (first compound max 1 µM, 7x7, partner max 10 µM)
3. COc1cc2c(cc1OCCCCCOc1cc3c(cc1OC)C(=O)N1C=C(C)C[C@H]1C=N3)N=C[C@@H]1CC(C)=CN1C2=O [SG3199] + O=C(c1cc(Cc2n[nH]c(=O)c3ccccc23)ccc1F)N1CCN(C(=O)C2CC2)CC1 [Olaparib] (first compound max 0.001 µM, 7x7, partner max 10 µM)
4. CC1(C)CCC(CN2CCN(c3ccc(C(=O)NS(=O)(=O)c4ccc(NCC5CCOCC5)c([N+](=O)[O-])c4)c(Oc4cnc5[nH]ccc5c4)c3)CC2)=C(c2ccc(Cl)cc2)C1 [Venetoclax] + COc1cc(Nc2ncc3c(n2)-c2ccc(Cl)cc2C(c2c(F)cccc2OC)=NC3)ccc1C(=O)O [Alisertib] (first compound max 1 µM, 7x7, partner max 10 µM)

[reply]
[0.906, 0.596, 0.198, 0.669]
